- target: human muscarinic M4 receptor (Homo sapiens)
- Sequence (P08173 whole entry): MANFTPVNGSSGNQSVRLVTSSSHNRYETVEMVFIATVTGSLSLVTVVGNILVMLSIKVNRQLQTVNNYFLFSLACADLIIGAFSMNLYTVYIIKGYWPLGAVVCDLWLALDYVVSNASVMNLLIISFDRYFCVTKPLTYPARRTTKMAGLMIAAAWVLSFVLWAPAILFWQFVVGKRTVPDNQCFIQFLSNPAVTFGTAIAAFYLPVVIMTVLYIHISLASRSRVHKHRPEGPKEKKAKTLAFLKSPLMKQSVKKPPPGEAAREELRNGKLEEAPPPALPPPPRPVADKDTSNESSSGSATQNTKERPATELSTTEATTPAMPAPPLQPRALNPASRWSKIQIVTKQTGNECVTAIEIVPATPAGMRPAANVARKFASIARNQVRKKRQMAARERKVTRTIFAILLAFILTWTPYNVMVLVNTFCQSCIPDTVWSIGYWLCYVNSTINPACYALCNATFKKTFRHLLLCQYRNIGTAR
- test-details: Alphascreen Surefire phospho-ERK1/2 functional assay, M4
- Assay type: cell-based
- condition-context: pEC50 M4, CHO cells stably expressing human M4; phospho-ERK1/2
parameter-measured: pEC50
To interpret pEC50, take it as minus log10 of a concentration measured in moles per litre.

molecule: CCOC(=O)N1C2COCC1CC(N1CCC(N(Cc3ccccc3)C(C)=O)CC1)C2 (single isomer, unassigned) [Example 6-5 Isomer 2]
pEC50: 6.84

So what's the measured pEC50 for this one? CCOC(=O)N1C2COCC1CC(N1CCC(N3CCCCC3=O)CC1)C2 (single isomer, unassigned) [Example 6-6 Isomer 2]
7.09

So what's the measured pEC50 for this one? CCOC(=O)N1C2COCC1CC(N1CCC(N3CCCCCC3=O)CC1)C2 (single isomer, unassigned) [Example 6-7 Isomer 1]
7.12

So what's the measured pEC50 for this one? CCOC(=O)N1C2COCC1CC(N1CCC(N3CC(F)(F)C[C@@H]3CO)CC1)C2 (single isomer, unassigned) [Example 4-1 Isomer 2]
7.00
